Overview of reported relative viability across a group of molecules:
- Test system: NCI-H650
- experiment_summary: relative viability (nuclei count vs DMSO), 5 days (fraction); higher = more cells survive
- recorded_conditions: first compound 0.253 µM

| molecule | relative viability |
| --- | --- |
| O=c1[nH]c2ccccc2n1C1CCN(CCCC(c2ccc(F)cc2)c2ccc(F)cc2)CC1 [Pimozide] + Nc1nc2[nH]cc(CCc3ccc(C(=O)N[C@@H](CCC(=O)O)C(=O)O)cc3)c2c(=O)[nH]1 [Pemetrexed] (partner 0.2 µM) | 0.936 |

Let's switch to this molecule now.
# value lookup — system NCI-H650, readout relative viability, item O=c1[nH]c2ccccc2n1C1CCN(CCCC(c2ccc(F)cc2)c2ccc(F)cc2)CC1 [Pimozide] + Cc1cc(Nc2cc(N3CCN(C)CC3)nc(Sc3ccc(NC(=O)C4CC4)cc3)n2)n[nH]1 [Tozasertib] (partner 0.1 µM)
0.702

###

- System: NCI-H1975
- experiment_summary: relative viability (nuclei count vs DMSO), 5 days (fraction); higher = more cells survive
- recorded_conditions: first compound 0.002 µM
measured_parameter: relative viability
Answer field: number only, no words.

These solved cases illustrate the format of a correct answer.
| compound | result |
| --- | --- |
| CC(=O)O[C@@]12CO[C@@H]1C[C@H](O)[C@@]1(C)C(=O)[C@H](O)C3=C(C)[C@@H](OC(=O)[C@H](O)[C@@H](NC(=O)OC(C)(C)C)c4ccccc4)C[C@@](O)([C@@H](OC(=O)c4ccccc4)[C@H]21)C3(C)C [Docetaxel] + C[C@]1(O)C[C@@H](c2nc(-c3ccc4ccc(-c5ccccc5)nc4c3)c3c(N)nccn32)C1 [Linsitinib] (partner 1 µM) | 0.309 |
| CC(=O)O[C@@]12CO[C@@H]1C[C@H](O)[C@@]1(C)C(=O)[C@H](O)C3=C(C)[C@@H](OC(=O)[C@H](O)[C@@H](NC(=O)OC(C)(C)C)c4ccccc4)C[C@@](O)([C@@H](OC(=O)c4ccccc4)[C@H]21)C3(C)C [Docetaxel] + NC(=O)Nc1cc(-c2cccc(F)c2)sc1C(=O)N[C@H]1CCCNC1 [AZD7762] (partner 0.2 µM) | 0.389 |
| CC(=O)O[C@@]12CO[C@@H]1C[C@H](O)[C@@]1(C)C(=O)[C@H](O)C3=C(C)[C@@H](OC(=O)[C@H](O)[C@@H](NC(=O)OC(C)(C)C)c4ccccc4)C[C@@](O)([C@@H](OC(=O)c4ccccc4)[C@H]21)C3(C)C [Docetaxel] + COc1cccc2cc(-c3nc([C@H]4CC[C@H](C(=O)O)CC4)n4ncnc(N)c34)[nH]c12 [OSI-027] (partner 0.5 µM) | 0.217 |
| CC(=O)O[C@@]12CO[C@@H]1C[C@H](O)[C@@]1(C)C(=O)[C@H](O)C3=C(C)[C@@H](OC(=O)[C@H](O)[C@@H](NC(=O)OC(C)(C)C)c4ccccc4)C[C@@](O)([C@@H](OC(=O)c4ccccc4)[C@H]21)C3(C)C [Docetaxel] + Cc1cc(Nc2cc(N3CCN(C)CC3)nc(Sc3ccc(NC(=O)C4CC4)cc3)n2)n[nH]1 [Tozasertib] (partner 0.1 µM) | 0.158 |
| CC(=O)O[C@@]12CO[C@@H]1C[C@H](O)[C@@]1(C)C(=O)[C@H](O)C3=C(C)[C@@H](OC(=O)[C@H](O)[C@@H](NC(=O)OC(C)(C)C)c4ccccc4)C[C@@](O)([C@@H](OC(=O)c4ccccc4)[C@H]21)C3(C)C [Docetaxel] + Nc1ncn([C@H]2C[C@H](O)[C@@H](CO)O2)c(=O)n1 [Decitabine] (partner 2 µM) | 0.223 |

Fill blank: measured relative viability of the compound CC(=O)O[C@@]12CO[C@@H]1C[C@H](O)[C@@]1(C)C(=O)[C@H](O)C3=C(C)[C@@H](OC(=O)[C@H](O)[C@@H](NC(=O)OC(C)(C)C)c4ccccc4)C[C@@](O)([C@@H](OC(=O)c4ccccc4)[C@H]21)C3(C)C [Docetaxel] + CS(=O)(=O)N1CCN(Cc2cc3nc(-c4cccc5[nH]ncc45)nc(N4CCOCC4)c3s2)CC1 [Pictilisib] (partner 1 µM) is ____.
0.213

###

- Test system: NCI-H1437
- experiment_summary: relative viability (nuclei count vs DMSO), 5 days (fraction); higher = more cells survive
- recorded_conditions: first compound 2.53 µM
Overview of reported relative viability across a group of compounds:
Answer field: number only, no words.

| compound | system_tested | relative viability |
| --- | --- | --- |
| O=c1[nH]c2ccccc2n1C1CCN(CCCC(c2ccc(F)cc2)c2ccc(F)cc2)CC1 [Pimozide] + COc1cccc2cc(-c3nc([C@H]4CC[C@H](C(=O)O)CC4)n4ncnc(N)c34)[nH]c12 [OSI-027] (partner 0.5 µM) | NCI-H1437 | 0.89 |

Let's switch to this compound now.
Fill blank: measured relative viability of the compound Cc1cnc(-c2cnc(NCCNc3ccc(C#N)cn3)nc2-c2ccc(Cl)cc2Cl)[nH]1 + CC1(C)CCC(c2ccc(Cl)cc2)=C(CN2CCN(c3ccc(C(=O)NS(=O)(=O)c4ccc(N[C@H](CCN5CCOCC5)CSc5ccccc5)c(S(=O)(=O)C(F)(F)F)c4)cc3)CC2)C1 [Navitoclax] (partner 0.5 µM) is ____.
1.12

###

- Tested on: NCI-H1395
- experiment_summary: relative viability (nuclei count vs DMSO), 5 days (fraction); higher = more cells survive
- recorded_conditions: first compound 0.253 µM
measured_parameter: relative viability

These solved cases illustrate the format of a correct answer.
| molecule | relative viability |
| --- | --- |
| O=c1[nH]c2ccccc2n1C1CCN(CCCC(c2ccc(F)cc2)c2ccc(F)cc2)CC1 [Pimozide] + CC(=O)c1c(C)c2cnc(Nc3ccc(N4CCNCC4)cn3)nc2n(C2CCCC2)c1=O [Palbociclib] (partner 0.5 µM) | 0.655 |
| Cc1cnc(-c2cnc(NCCNc3ccc(C#N)cn3)nc2-c2ccc(Cl)cc2Cl)[nH]1 + N=C(N)NC(=N)NCCc1ccccc1 [Phenformin] (partner 250 µM) | 0.424 |
| O=c1[nH]c2ccccc2n1C1CCN(CCCC(c2ccc(F)cc2)c2ccc(F)cc2)CC1 [Pimozide] + O=C(CCCCCCC(=O)Nc1ccccc1)NO [Vorinostat] (partner 1 µM) | 0.607 |
| O=c1[nH]c2ccccc2n1C1CCN(CCCC(c2ccc(F)cc2)c2ccc(F)cc2)CC1 [Pimozide] + CC(=O)Nc1cccc(-n2c(=O)n(C3CC3)c(=O)c3c(Nc4ccc(I)cc4F)n(C)c(=O)c(C)c32)c1 [Trametinib] (partner 0.02 µM) | 0.924 |

Fill blank: measured relative viability of the molecule O=c1[nH]c2ccccc2n1C1CCN(CCCC(c2ccc(F)cc2)c2ccc(F)cc2)CC1 [Pimozide] + Cc1nc(NC(=O)N2CCC[C@H]2C(N)=O)sc1-c1ccnc(C(C)(C)C(F)(F)F)c1 [Alpelisib] (partner 2 µM) is ____.
0.958

###

Overview of reported relative viability across a group of compounds:
- Tested on: NCI-H522
- experiment_summary: relative viability (nuclei count vs DMSO), 5 days (fraction); higher = more cells survive
- recorded_conditions: first compound 0.8 µM
Answer field: number only, no words.

These solved cases illustrate the format of a correct answer.
| compound | relative viability |
| --- | --- |
| Cc1cnc(-c2cnc(NCCNc3ccc(C#N)cn3)nc2-c2ccc(Cl)cc2Cl)[nH]1 + COc1cccc2cc(-c3nc([C@H]4CC[C@H](C(=O)O)CC4)n4ncnc(N)c34)[nH]c12 [OSI-027] (partner 0.5 µM) | 0.647 |
| O=c1[nH]c2ccccc2n1C1CCN(CCCC(c2ccc(F)cc2)c2ccc(F)cc2)CC1 [Pimozide] + Nc1ncn([C@H]2C[C@H](O)[C@@H](CO)O2)c(=O)n1 [Decitabine] (partner 2 µM) | 0.615 |
| O=c1[nH]c2ccccc2n1C1CCN(CCCC(c2ccc(F)cc2)c2ccc(F)cc2)CC1 [Pimozide] + N=C(N)NC(=N)NCCc1ccccc1 [Phenformin] (partner 250 µM) | 0.628 |
| Cc1cnc(-c2cnc(NCCNc3ccc(C#N)cn3)nc2-c2ccc(Cl)cc2Cl)[nH]1 + O=C(CCCCCCC(=O)Nc1ccccc1)NO [Vorinostat] (partner 1 µM) | 0.958 |
| Cc1cnc(-c2cnc(NCCNc3ccc(C#N)cn3)nc2-c2ccc(Cl)cc2Cl)[nH]1 + Cc1nc(Nc2ncc(C(=O)Nc3c(C)cccc3Cl)s2)cc(N2CCN(CCO)CC2)n1 [Dasatinib] (partner 0.075 µM) | 0.737 |
| O=c1[nH]c2ccccc2n1C1CCN(CCCC(c2ccc(F)cc2)c2ccc(F)cc2)CC1 [Pimozide] + COc1cccc2cc(-c3nc([C@H]4CC[C@H](C(=O)O)CC4)n4ncnc(N)c34)[nH]c12 [OSI-027] (partner 0.5 µM) | 0.54 |
| Cc1cnc(-c2cnc(NCCNc3ccc(C#N)cn3)nc2-c2ccc(Cl)cc2Cl)[nH]1 + Nc1nc2[nH]cc(CCc3ccc(C(=O)N[C@@H](CCC(=O)O)C(=O)O)cc3)c2c(=O)[nH]1 [Pemetrexed] (partner 0.2 µM) | 0.97 |
| Cc1cnc(-c2cnc(NCCNc3ccc(C#N)cn3)nc2-c2ccc(Cl)cc2Cl)[nH]1 + O=C(c1cc(Cc2n[nH]c(=O)c3ccccc23)ccc1F)N1CCN(C(=O)C2CC2)CC1 [Olaparib] (partner 8 µM) | 0.681 |

Let's switch to this compound now.
# value lookup — system NCI-H522, readout relative viability, item O=c1[nH]c2ccccc2n1C1CCN(CCCC(c2ccc(F)cc2)c2ccc(F)cc2)CC1 [Pimozide] + O=C(c1cc(Cc2n[nH]c(=O)c3ccccc23)ccc1F)N1CCN(C(=O)C2CC2)CC1 [Olaparib] (partner 8 µM)
0.751
